Molecular target: T1, RhoC Q63L (UniProt P08134 1-190, limits assumed)
T1 construct: also called RhoC Q63L (2SHA); constitutively active RhoC mutant
T1 sequence (P08134 1-190 Q63L limits assumed): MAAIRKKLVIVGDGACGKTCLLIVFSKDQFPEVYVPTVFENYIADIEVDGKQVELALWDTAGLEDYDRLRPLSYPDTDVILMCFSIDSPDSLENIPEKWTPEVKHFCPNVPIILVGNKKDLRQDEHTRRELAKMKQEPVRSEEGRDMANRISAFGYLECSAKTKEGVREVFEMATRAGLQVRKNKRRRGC
Experiment: binding kinetics, method not stated (Table 1)
READOUT_NAME: Kd (nM)

5SNP48 hs2dAb (VHH) VHH: VQLQASGGGFVQPGGSLRLSCAASGTSWFTEVMGWFRQAPGKEREFVSAISGLHDVGTYYADSVKGRFTISRDNSKNTVYLQMNSLRAEDTATYYCAALDKWYTKAMDARKDYWGQGTQVTVSS : 0.524

(P) 5SNP65 hs2dAb (VHH) VHH: VQLQASGGGFVQPGGSLRLSCAASGATYEGEAMGWFRQAPGKEREFVSAISSYPSVISYYADSVKGRFTISRDNSKNTVYLQMNSLRAEDTATYYCAYWVNHEGTIREIYWGQGTQVTVSS
(Q) 4SNP61 hs2dAb (VHH) VHH: VQLQASGGGFVQPGGSLRLSCAASGFTSTSTVMGWFRQAPGKEREFVSAISSAHTMDTYYADSVKGRFTISRDNSKNTVYLQMNSLRAEDTATYYCAPAPMLGQMITQPALPYWGQGTQVTVSS
(R) B6 hs2dAb (VHH, also called hs2dAb B6) VHH: VQLQASGGGFVQPGGSLRLSCAASGYGSTIETMGWFRQAPGKEREFVSAISRAPGPSQYYADSVKGRFTISRDNSKNTVYLQMNSLRAEDTATYYCAPINNRTMQDSMFLWNYWGQGTQVTVSS
List by increasing Kd. Output the labels ranked as instructed. P, R, Q

The reported numbers originate from patent US20180022794A1.
